FYI, the data here is from PubChem BioAssay (NCI).

- protocol details: NCI Yeast Anticancer Drug Screen. Data for the mgt1 strain (AID 153)
- conditions used: S. cerevisiae mgt1 mutant growth inhibition; at 100.0 µM
This is part of a sample that, as a whole, favours compounds with a hit. Of some 79,000 tested, about 15% had one in any assay. The source made the active and inactive calls. Rule as the data show it: active = growth inhibition above about 70%; inactive = the rest.
Return exactly one item of yes (1) (active), no (0) (inactive)

Below, 10 molecules whose answers are already recorded.
molecule: NCCCSc1ccccc1
group label: no (0)
--
molecule: CCN(CC)CCNc1ccc2ncn3c4ccc(O)cc4c(=O)c1c23
group label: no (0)
--
molecule: C1=CCN([B-](c2ccccc2)[C+]2CCCCC2)C=C1
group label: yes (1)
--
molecule: CCC(C)(C)c1ccc(Oc2ccccc2)c(N)c1
group label: yes (1)
--
molecule: NC(=S)N/N=C1\c2ccccc2CCC1CCC1(O)CCc2ccccc2C1=O (configuration not stated)
group label: yes (1)
--
molecule: CCC(/C=C/c1ccccc1)=N\Nc1ccc(Cl)cc1
group label: no (0)
--
molecule: CCS(=O)(=O)Nc1ccc(Nc2c3ccccc3nc3ccccc23)c(OC)c1
group label: no (0)
--
molecule: COc1ccc2nc(CCc3ccccc3)ccc2c1
group label: no (0)
--
molecule: Cc1ccc(S(=O)(=O)N/N=C/C(Br)=C(/Br)C(=O)O)cc1
group label: yes (1)
--
molecule: O=C(C(Cl)=C(N1CCCCC1)N1CCCCC1)C(Cl)Cl
group label: no (0)

Hey, what did the test say about Cc1ccc(Nc2n[nH]c(=S)s2)c(C)c1 ?
yes (1)

Hey, what did the test say about O=C1C(CCSc2ccccc2)C(=O)N(c2ccccc2)C1c1ccccc1 (configuration not stated) ?
yes (1)

====

- protocol details: NCI Yeast Anticancer Drug Screen. Data for the cln2 rad14 strain (AID 165);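 also: 0% = growth equal to vehicle treated cultures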
- conditions used: S. cerevisiae cln2 rad14 strain, at 50.0 µM
About 79,000 compounds went through this panel and 15% of them were active in at least one assay; those are over-represented in the sample as a whole. The source made the active and inactive calls. Rule as the data show it: active = growth inhibition above about 70%; inactive = the rest.
Return exactly one item of Yes for active, No for inactive

compound: Cc1nc2sc3c(c2c(=O)o1)CCCC3
group label: No

compound: CCOC(=O)/C(=C\c1cccc(C)c1)C(C)=O
group label: Yes

compound: CCCCCCC=C(C(=O)OCC)C(=O)OCC
group label: No

compound: OC1(C#CI)CCCCC1
group label: Yes

compound: COc1cc(NCCCCNCC(C)(C)C)c2ncccc2c1
group label: No

compound: Cc1cc(Cl)ccc1NC(=O)/C(Cl)=C(/Cl)C(=O)O
group label: Yes

Hey, what did the test say about Cc1cc(C)c2[s+]snc2c1 ?
No

Hey, what did the test say about CN(C)N=Nc1ccc(N(C)C)cc1 ?
No

Hey, what did the test say about CN(C)CCNC(=Cc1ccc2ccccc2[n+]1C)NCCN(C)C ?
No

Hey, what did the test say about COc1cc2oc3ccccc3c(=O)c2cc1CSc1ccccc1N ?
No

Hey, what did the test say about COC(=O)/C(C#N)=C\NC(=S)C(N)=S ?
Yes

Hey, what did the test say about CN(CCOc1ccc(Cl)cc1)CCOc1ccc(Cl)cc1 ?
Yes

Hey, what did the test say about CC(CN(C)C)C(=O)/C=C/c1ccc(Cl)c(Cl)c1 (stereo not drawn) ?
Yes

====

Quick reference: growth inhibition of the listed items.
- protocol details: NCI Yeast Anticancer Drug Screen. Data for the rad50 strain (AID 155);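 also: 0% = growth of vehicle-only cultures of the same strain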
- conditions used: S. cerevisiae rad50 strain growth inhibition; at 5.0 µM (retest, dose inferred, filed as 0.5); stronger effect = higher value
The panel holds about 79,000 compounds, 15% with a hit somewhere; the sample as a whole holds those more often.
Please reply with the bare figure in % and do not write the unit itself.

Tell us which growth inhibition value is on record for O=C1C=C(Br)C(=O)c2ccccc21
27

Tell us which growth inhibition value is on record for CC1(C)CC(=O)C(/C=N/c2nc(-c3ccc(Br)cc3)cs2)=C(O)C1
-4

Tell us which growth inhibition value is on record for CC(=O)Oc1ccc2c(c1)Cc1cc(N3C(=O)C=CC3=O)ccc1-2
27

Tell us which growth inhibition value is on record for C=CCNC1=C2C[C@@H](C)C[C@H](OC)[C@H](O)[C@@H](C)/C=C(\C)[C@H](OC(N)=O)[C@@H](OC)/C=C\C=C(/C)C(=O)NC(=CC1=O)C2=O
-32

Tell us which growth inhibition value is on record for O=[N+]([O-])c1ccc(/C=C\c2ccc3c(c2)OCO3)c([N+](=O)[O-])c1
33

====

- protocol details: NCI Yeast Anticancer Drug Screen. Data for the rad50 strain (AID 155);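 also: 0% = growth of vehicle-only cultures of the same strain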
- conditions used: S. cerevisiae rad50 strain growth inhibition; at 11.0 µM
About 79,000 compounds went through this panel and 15% of them were active in at least one assay; those are over-represented in the sample as a whole. Activity calls are given as the source filed them. Rule as the data show it: active = growth inhibition above about 70%; inactive = the rest.
Return exactly one item of active, inactive

cpd smiles: O=C(Oc1ccc([N+](=O)[O-])cc1)c1ccc([N+](=O)[O-])cc1
group label: inactive
--
cpd smiles: CC(C)OC(=O)NNc1c(Cl)cc(Cl)cc1Cl
group label: inactive
--
cpd smiles: COC(=O)/C(C#N)=C\NC(=S)C(N)=S
group label: active

Hey, what did the test say about Nc1ccc(/C=C/c2ccc3cccnc3c2)cc1 ?
inactive

Hey, what did the test say about O=C(CCCN1CCC(Nc2ccc(F)cc2)(c2nnnn2C2CCCCC2)CC1)c1ccc(F)cc1 ?
inactive

Hey, what did the test say about Cc1cc(O)c(C(C)C)cc1SC#N ?
inactive

====

Quick reference: growth inhibition of the listed items.
- protocol details: NCI Yeast Anticancer Drug Screen. Data for the mgt1 strain (AID 153)
- conditions used: S. cerevisiae mgt1 mutant growth inhibition; at 1.2 µM; stronger effect = higher value
This is part of a sample that, as a whole, favours compounds with a hit. Of some 79,000 tested, about 15% had one in any assay.
Please reply with the bare figure in % and do not write the unit itself.

Guide cases for growth inhibition, answers given:
molecule: O=[N+]([O-])c1ccc(S(=O)(=O)Cc2ccccc2)c([N+](=O)[O-])c1
growth inhibition, %: 10
//
molecule: OC1(c2ccccc2)C2CC=CC2C1(c1ccccc1)c1ccccc1 (configuration not stated)
growth inhibition, %: -4
//
molecule: Cn1c(-c2ccc(/C=N\N3CCN(/N=C/c4ccc(-c5c[n+]6ccsc6n5C)cc4)CC3)cc2)c[n+]2ccsc12
growth inhibition, %: 17

Tell us which growth inhibition value is on record for CCCCS(=O)(=O)Nc1ccc(Nc2c3ccccc3nc3ccccc23)c(OC)c1
-49

Tell us which growth inhibition value is on record for O=C(Cc1ccccc1)NNc1nc(NNC(=O)c2ccncc2)nc(Nc2ccc([N+](=O)[O-])cc2)n1
4

Tell us which growth inhibition value is on record for Oc1ccc(N=Nc2ccc(Cl)cc2)cc1
-3

Tell us which growth inhibition value is on record for CC(C)[Si]1(C(C)C)OCC2OC(n3cnc4c(N)ncnc43)C(N)C2O[Si](C(C)C)(C(C)C)O1 (configuration not stated)
19

Tell us which growth inhibition value is on record for CCN(CC)C(=S)SC(=S)N(CC)CC
-42

Tell us which growth inhibition value is on record for O=C(CN(c1ccccc1)c1ccccc1)n1nnc2ccccc21
6

====

Quick reference: growth inhibition of the listed items.
- protocol details: NCI Yeast Anticancer Drug Screen. Data for the rad52 strain (AID 147);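 also: 0% = growth of vehicle-treated control cultures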
- conditions used: S. cerevisiae rad52 mutant growth inhibition; at 33.0 µM; stronger effect = higher value
About 79,000 compounds went through this panel and 15% of them were active in at least one assay; those are over-represented in the sample as a whole.
Please reply with the bare figure in % and do not write the unit itself.

Guide cases for growth inhibition, answers given:
molecule: S=C1N(c2ccc(Cl)cc2)C2=C(N=Nc3ccccc3)C(=Nc3ccccc3S2)N1c1ccccn1
growth inhibition / %: 98
//
molecule: CCCCCCCCCCCCCCCCCCN(C)C(COC)COP(=O)([O-])OCC[N+](C)(C)C (stereo not given)
growth inhibition / %: 97
//
molecule: CCN1CCC(O)(c2ccc(Oc3ccc(Cl)cc3)cc2)C(C(=O)c2ccc(Oc3ccc(Cl)cc3)cc2)C1 (stereo not given)
growth inhibition / %: -6
//
molecule: CCCCN(CCC#N)c1ccc(/C=C/c2ccnc3ccccc23)cc1
growth inhibition / %: 63

Okay, next one:
Tell us which growth inhibition value is on record for CC(=O)/C=C/c1cc([N+](=O)[O-])ccc1O
79

====

- protocol details: NCI Yeast Anticancer Drug Screen. Data for the mec2-1 strain (AID 157)
- conditions used: S. cerevisiae mec2-1 strain, at 11.0 µM, stronger effect = higher value
This is part of a sample that, as a whole, favours compounds with a hit. Of some 79,000 tested, about 15% had one in any assay.
Quick reference: growth inhibition of the listed items.
Please reply with the bare figure in % and do not write the unit itself.

Tell us which growth inhibition value is on record for CCCNC(=O)OCc1c(COC(=O)NCCC)c(-c2ccc(Cl)c(Cl)c2)n2c1CCC2
-31

Tell us which growth inhibition value is on record for C[n+]1c(/C=C/c2ccc(/C=N/NC(=O)c3ccc(C(=O)N/N=C/c4ccc(/C=C/c5cn6ccccc6[n+]5C)cc4)cc3)cc2)cn2ccccc21
98
